These measurements were taken from ChEMBL document CHEMBL3784965.

We begin with a simple list: items and their reported microsomal CLint.
Assay: Intrinsic clearance in rat liver microsomes
Format: ADME
Settings: read-out: CLH
PROPERTY MEASURED: microsomal CLint (µL/min/mg)

[
  {
    "STRUCTURE SMILES": "Cc1cc(-c2cc(F)c3nnc([C@@H](C)n4ccc5ncccc5c4=O)n3c2)on1",
    "LIMIT SIGN": "=",
    "VALUE REPORTED": 8
  },
  {
    "STRUCTURE SMILES": "COc1cnc2ccn([C@H](C)c3nnc4ccc(-c5cnn(C)c5)cn34)c(=O)c2c1",
    "LIMIT SIGN": "=",
    "VALUE REPORTED": 9
  },
  {
    "STRUCTURE SMILES": "COCCOc1cnc2ccn([C@H](C)c3nnc4ccc(-c5cc(C)no5)cn34)c(=O)c2c1",
    "LIMIT SIGN": "=",
    "VALUE REPORTED": 9
  },
  {
    "STRUCTURE SMILES": "COCCOc1cnc2ccn([C@H](C)c3nnc4c(F)cc(-c5cnn(C)c5)cn34)c(=O)c2c1",
    "LIMIT SIGN": "=",
    "VALUE REPORTED": 6
  },
  {
    "STRUCTURE SMILES": "C[C@H](c1nnc2c(F)cc(-c3cnn(C)c3)cn12)n1ccc2ncccc2c1=O",
    "LIMIT SIGN": "=",
    "VALUE REPORTED": 8
  },
  {
    "STRUCTURE SMILES": "COCCOc1cnc2ccn([C@H](C)c3nnc4ccc(-c5cnn(C)c5)cn34)c(=O)c2c1",
    "LIMIT SIGN": "<",
    "VALUE REPORTED": 5
  },
  {
    "STRUCTURE SMILES": "COc1cnc2ccn([C@H](C)c3nnc4c(F)cc(-c5cnn(C)c5)cn34)c(=O)c2c1",
    "LIMIT SIGN": "=",
    "VALUE REPORTED": 12
  },
  {
    "STRUCTURE SMILES": "COCCOc1cnc2ccn([C@H](C)c3nnc4c(F)cc(-c5cc(C)no5)cn34)c(=O)c2c1",
    "LIMIT SIGN": "=",
    "VALUE REPORTED": 16
  }
]

* * *

Attribute: Activity
Test system: Mus musculus
Assay: In vivo inhibition of HGF-induced phosphorylation of MET in Balb/c mouse liver assessed as phosphorylated cMET level at 10 mg/kg administered via oral gavage followed by HGF injection 24 hrs post dose by electrochemiluminescence immunoassay relative to control
Type: functional
Design: scale not given: the % may be the effect or the level left

[
  {
    "STRUCTURE SMILES": "COCCOc1cnc2ccn([C@H](C)c3nnc4c(F)cc(-c5cc(C)no5)cn34)c(=O)c2c1",
    "Activity": "28%"
  },
  {
    "STRUCTURE SMILES": "COCCOc1cnc2ccn([C@H](C)c3nnc4c(F)cc(-c5cnn(C)c5)cn34)c(=O)c2c1",
    "Activity": "51%"
  },
  {
    "STRUCTURE SMILES": "COCCOc1cnc2ccn([C@H](C)c3nnc4ccc(-c5cc(C)no5)cn34)c(=O)c2c1",
    "Activity": "50%"
  },
  {
    "STRUCTURE SMILES": "Cc1cc(-c2cc(F)c3nnc([C@@H](C)n4ccc5ncccc5c4=O)n3c2)on1",
    "Activity": "12%"
  }
]
